target: p300 (Homo sapiens); assay: radioactive acetyltransferase activity-based IC50 assay; assay type: biochemical
Sequence (Q09472 1284-1673 limits assumed): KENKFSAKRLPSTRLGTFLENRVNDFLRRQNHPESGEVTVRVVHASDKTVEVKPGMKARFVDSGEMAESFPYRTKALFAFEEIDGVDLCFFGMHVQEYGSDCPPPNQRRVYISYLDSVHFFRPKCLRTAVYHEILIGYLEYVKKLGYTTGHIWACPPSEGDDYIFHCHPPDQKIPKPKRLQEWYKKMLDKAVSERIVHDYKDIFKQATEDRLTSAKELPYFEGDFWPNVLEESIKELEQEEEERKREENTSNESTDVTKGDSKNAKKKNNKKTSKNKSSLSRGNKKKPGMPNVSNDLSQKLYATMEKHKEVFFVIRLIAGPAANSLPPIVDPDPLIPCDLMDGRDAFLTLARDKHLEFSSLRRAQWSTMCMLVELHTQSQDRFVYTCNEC
EXPERIMENTAL READOUT: pIC50
One number for each entry, as −log10 of the molar value.

Input line: Returns the measured pIC50 for the input compound. Input: CC(C)C[C@H]1NC(=O)[C@@H](NC(=O)CCc2cccc([N+](=O)[O-])c2)Cc2ccc(cc2)SC[C@@H](C(N)=O)NC(=O)CC2(CCCCC2)CNC1=O
Output line: 5.28
